B1: Hairpin Ribozyme (parent)
chain: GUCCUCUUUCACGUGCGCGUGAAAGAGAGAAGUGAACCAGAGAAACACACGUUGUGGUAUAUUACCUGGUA

# Variants of: B1
# assay: self-cleavage, relative activity (ratio to wild type); higher = more cleavage; co-transcriptional
Kind request: treat 0.1 as inclusive, so self-cleavage at 0.1 or higher is Yes, anything lower is No.

- mutation-label: "A23G G32U"
  class-assignment: "No"
- mutation-label: "G56U C65U"
  class-assignment: "Yes"
- mutation-label: "A30U A61G"
  class-assignment: "No"

Does the variant C10U C16U have recorded self-cleavage that is 0.1 or more?
Yes

Does the variant A36G G56A have recorded self-cleavage that is 0.1 or more?
Yes

Does the variant A36U U58A have recorded self-cleavage that is 0.1 or more?
Yes

Does the variant U9G G21A have recorded self-cleavage that is 0.1 or more?
Yes

Does the variant C10A U53A have recorded self-cleavage that is 0.1 or more?
Yes

Does the variant A61U G68A have recorded self-cleavage that is 0.1 or more?
Yes

Does the variant C12G U55G have recorded self-cleavage that is 0.1 or more?
Yes

Does the variant A41C U62G have recorded self-cleavage that is 0.1 or more?
No

Does the variant G29A A71U have recorded self-cleavage that is 0.1 or more?
Yes

Does the variant C46A U63A have recorded self-cleavage that is 0.1 or more?
Yes

Does the variant C6A A24C have recorded self-cleavage that is 0.1 or more?
Yes

Does the variant A61U U62C have recorded self-cleavage that is 0.1 or more?
Yes

Does the variant G27C C37A have recorded self-cleavage that is 0.1 or more?
Yes

Does the variant A28C U60C have recorded self-cleavage that is 0.1 or more?
Yes

Does the variant G27C G57C have recorded self-cleavage that is 0.1 or more?
No

Does the variant A30G G32U have recorded self-cleavage that is 0.1 or more?
Yes

Does the variant G29U C65G have recorded self-cleavage that is 0.1 or more?
No

Does the variant G32C C65U have recorded self-cleavage that is 0.1 or more?
No

Does the variant C18A G29A have recorded self-cleavage that is 0.1 or more?
Yes
